- target_desc: EZH2 (PRC2 enzyme complex: EZH2, EED, Suz12, RbAp48) (Homo sapiens (Human), UniProt Q15910)
- Sequence (Q15910 other isoform, or with tags, fused parts or gaps): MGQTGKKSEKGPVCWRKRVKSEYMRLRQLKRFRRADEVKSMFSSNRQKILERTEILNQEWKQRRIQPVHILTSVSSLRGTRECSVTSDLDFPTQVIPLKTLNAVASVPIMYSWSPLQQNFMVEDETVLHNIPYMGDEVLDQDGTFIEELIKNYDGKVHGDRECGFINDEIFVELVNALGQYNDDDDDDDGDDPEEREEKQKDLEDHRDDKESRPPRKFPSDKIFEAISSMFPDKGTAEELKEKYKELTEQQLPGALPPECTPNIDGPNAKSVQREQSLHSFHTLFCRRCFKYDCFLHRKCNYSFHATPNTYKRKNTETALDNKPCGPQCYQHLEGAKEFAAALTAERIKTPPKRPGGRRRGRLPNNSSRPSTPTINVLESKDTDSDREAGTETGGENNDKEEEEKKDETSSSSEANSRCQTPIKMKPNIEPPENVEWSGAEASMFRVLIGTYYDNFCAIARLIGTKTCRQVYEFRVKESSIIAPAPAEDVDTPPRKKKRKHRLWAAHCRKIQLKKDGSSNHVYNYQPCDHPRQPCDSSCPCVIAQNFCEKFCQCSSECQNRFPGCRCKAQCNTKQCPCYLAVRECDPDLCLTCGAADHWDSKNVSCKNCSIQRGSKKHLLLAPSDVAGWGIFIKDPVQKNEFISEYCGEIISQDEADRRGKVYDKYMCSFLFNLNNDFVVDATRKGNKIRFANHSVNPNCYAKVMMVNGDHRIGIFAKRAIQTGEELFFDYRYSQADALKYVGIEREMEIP
- Sequence (O75530 whole entry partner): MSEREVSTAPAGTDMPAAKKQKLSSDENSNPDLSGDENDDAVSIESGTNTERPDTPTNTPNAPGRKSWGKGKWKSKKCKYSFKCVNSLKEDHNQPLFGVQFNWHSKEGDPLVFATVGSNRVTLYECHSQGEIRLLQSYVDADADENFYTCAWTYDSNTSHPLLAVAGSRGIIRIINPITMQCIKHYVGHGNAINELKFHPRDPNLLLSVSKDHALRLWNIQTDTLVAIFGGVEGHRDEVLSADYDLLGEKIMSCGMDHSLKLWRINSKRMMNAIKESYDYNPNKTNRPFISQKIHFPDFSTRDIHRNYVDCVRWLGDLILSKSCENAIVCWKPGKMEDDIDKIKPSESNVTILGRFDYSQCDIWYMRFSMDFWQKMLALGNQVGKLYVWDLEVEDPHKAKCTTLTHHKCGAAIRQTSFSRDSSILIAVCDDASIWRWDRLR
- Sequence (Q15022 whole entry partner): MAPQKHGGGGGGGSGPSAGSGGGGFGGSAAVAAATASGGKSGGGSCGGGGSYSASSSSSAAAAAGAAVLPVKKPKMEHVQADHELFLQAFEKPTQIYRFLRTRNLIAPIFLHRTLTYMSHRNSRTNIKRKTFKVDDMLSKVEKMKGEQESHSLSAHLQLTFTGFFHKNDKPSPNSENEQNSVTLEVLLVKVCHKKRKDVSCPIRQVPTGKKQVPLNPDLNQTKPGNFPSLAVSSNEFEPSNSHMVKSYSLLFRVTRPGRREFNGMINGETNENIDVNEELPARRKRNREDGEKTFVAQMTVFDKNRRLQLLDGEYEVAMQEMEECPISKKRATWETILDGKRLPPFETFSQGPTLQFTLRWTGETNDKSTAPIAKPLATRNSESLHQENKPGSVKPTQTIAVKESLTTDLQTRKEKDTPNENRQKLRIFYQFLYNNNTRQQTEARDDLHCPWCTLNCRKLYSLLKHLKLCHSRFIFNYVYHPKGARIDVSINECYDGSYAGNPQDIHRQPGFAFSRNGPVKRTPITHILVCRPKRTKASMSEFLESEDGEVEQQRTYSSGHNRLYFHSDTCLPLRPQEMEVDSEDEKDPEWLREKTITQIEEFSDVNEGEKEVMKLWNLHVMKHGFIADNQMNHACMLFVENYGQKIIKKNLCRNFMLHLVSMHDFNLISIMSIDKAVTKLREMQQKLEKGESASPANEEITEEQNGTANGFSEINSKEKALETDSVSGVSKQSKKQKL
- Sequence (Q09028 whole entry partner): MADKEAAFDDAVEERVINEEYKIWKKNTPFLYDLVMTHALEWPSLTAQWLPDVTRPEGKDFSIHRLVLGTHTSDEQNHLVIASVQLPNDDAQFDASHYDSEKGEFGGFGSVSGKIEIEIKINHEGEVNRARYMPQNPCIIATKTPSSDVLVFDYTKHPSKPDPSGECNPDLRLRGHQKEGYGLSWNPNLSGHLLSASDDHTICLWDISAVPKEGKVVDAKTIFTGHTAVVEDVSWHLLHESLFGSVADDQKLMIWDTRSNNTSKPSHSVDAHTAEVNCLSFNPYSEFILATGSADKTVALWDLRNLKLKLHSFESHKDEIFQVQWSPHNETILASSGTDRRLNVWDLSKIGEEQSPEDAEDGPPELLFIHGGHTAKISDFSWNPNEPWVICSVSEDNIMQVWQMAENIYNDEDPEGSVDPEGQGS
- test_summary: PRC2 enzyme assay on peptide substrates (3H-SAM Flashplate)
- measurement_setup: read-out: EZH2 IC50; PRC2 enzyme assays on peptide substrates; 4 nM enzyme, 30 min preincubation at 25° C.; EZH2 form (wild-type or Y641 mutant) not stated in tables
pIC50: −log10 of the molar value.
metric: pIC50

Worked set:
| compound | pIC50 |
| --- | --- |
| Cc1cc(C)c(CNC(=O)c2cc(C3CC(C)(C)NC(C)(C)C3)nc3c2cnn3C2CCCC2)c(=O)[nH]1 | > 6.52 |
| CNCCN1CCC(c2cc(C(=O)NCC3=C(C)C=C(C)NC3C)c3cnn(C4CCCC4)c3c2)CC1 (stereo not drawn) | > 6.52 |

Turning now to a further compound:
// field: pIC50; key: CC1=CC(C)=C(CNC(=O)c2cc(C3=CCN(C(=O)C4CN(C)C4)CC3)cc3c2cnn3C2CCCC2)C(C)N1 (stereo not drawn) ; value = > 6.52

The reported measurements were obtained from patent US10273223B2.
